tested on: K4 kissing-loop RNA reporter; test: apparent KD of K4 kissing-loop reporter; higher = weaker reporter binding; conditions: Eterna round: R107; input ligand: none;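 also: bound reporter read as fluorescence of individual clusters on recovered sequencing chips by microscopy, with normalized cluster intensities fitted with a binding model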
QUANTITY MEASURED: apparent KD of K4 kissing-loop reporter (nM)
Respond numerically; units are nM and should not be typed.

Below, each entry is followed by its recorded apparent KD of K4 kissing-loop reporter result.
INSERT INTO assay_data (primary_sequence, recorded_result) VALUES
  ('AAGCAGUCACUCGAAUCCAUCGAAGAUGGACGAGGACCGGUACGGCCGCCACUCGGAGUGAUGUUCCGAAGACUGCAAAAUAAAA', 342),
  ('CUAUGGGUGGACGAUACCAGCUAGUGAUGUUAGCGGGUCGAGCACGCGCAUCGCCGUGGUAGCCCUUGGCAGCGUACAGAUGUUU [theeternabot_exclusion_KL_Theo_B_5]', 178);

For the next question, use this sequence.
Inquiry: Return reported apparent KD of K4 kissing-loop reporter; argument: GGGCCUAUUGAUGCUGGAGUAAUUCUGGAAGGAGCGCUCAAAGGAGCAGGUAGGUCGCCAGUAUACAAGGGCAGUGAUGUUGCCC [Entimalati]
Reply text: 161

* * *

Measured apparent KD of MS2 coat protein, listed per entry.
system: MS2 coat protein; test: apparent KD of MS2 coat protein; designed switch direction (-1 OFF switch, 1 ON switch): -1; higher = weaker reporter binding; details: Eterna round: R95; input ligand: microRNA oligo, concentration not stated
Kindly provide the numeric value in nM only, without the unit symbol.

INSERT INTO measurements (primary_sequence, recorded_result) VALUES
  ('UGCUAGUCAGGAUAUACGAACAUGUCAAAAGACGUGAAGGGACAUGAGGAUCACCCAUGUAGAAGGGACUAGCA [salish99_ex2_r3_005] (puzzle: Exclusion 2)', 27.1),
  ('AAGAAACAUGAGGAUCACCCAUGUGAGGAUAUGAACAAGAAAAGAAAAGAAAGAAGAAUCAGAAGGCACAAAGG [salish99-ex1_r3_047] (puzzle: Exclusion 1)', 49.2),
  ('AGUAACUAUCACGAAAGUGAUAGUUACAAAACAAGUGGAACAUGAGGAUCACCCAUGUCCUCAUUUGCUCGUCUUAU [Sensor 3 - 4] (puzzle: Sensor v3, turn-off variant 2)', 238),
  ('ACAAAGUGAGGAUAUACUAAAACCCUCAUACCCAAAAGGGAACAUGAGGAUCACCCAUGUAGAAGGCACAUAAU [Esmainleor] (puzzle: Exclusion 2)', 100),
  ('GAGUGACAUGAGGAUCACCCAUGUGAGGAUAUGCGACGGACCAAAUUAACAAUAGAAGGCAGAAGGCGCAUAAA [Exclusion 1 V10] (puzzle: Exclusion 1)', 33.1);

Inquiry: Consider the sequence CUGGUCCGAGGAUAUAUUAAGUGAAACAUGAGGAUCACCCAUGUUAUUUAAUGGAUGUAAAUAGAAGGCGGACUAG [JL-ex5-3.12] (puzzle: Exclusion 5) and give its measured apparent KD of MS2 coat protein.
Reply text: 37

Inquiry: Similarly, CUUUUGUGAGGAUAUUAGUAGUAAAAAAAUAAAAUUACUACUGAGAAGGCACAUGAGGAUCACCCAUGUUCCUC [salish99_ex4_r3_036] (puzzle: Exclusion 4) ?
Reply text: 33.2

Inquiry: What do we get for AAGUACCGUCACGAUAGUGAUGGUACAGCAAGCAAAUGUACAUGAGGAUCACCCAUGUCCUCUUUUGCUCGUCUUAU [Sensor 3 - 98] (puzzle: Sensor v3, turn-off variant 2) ?
Reply text: 31.1

Inquiry: Proceed to AGUACUAACACGAAAGUGUUAGUUCAAUAAGCUUGUGAAACAUGAGGAUCACCCAUGUCCUCAUAAGCUCGUCUUAU [salish99_TOv2_r3_040] (puzzle: Sensor v3, turn-off variant 2)
Reply text: 856

Inquiry: What do you get for CAGUACUGAGGAUAUACAUGAGGAUCACCCAUGUGUUCCAGCUAGGAAACUUGCAAAAGUAGAAGGCAGUACUG [salish99_ex3_r3_093x] (puzzle: Exclusion 3) ?
Reply text: 11.9

Inquiry: Also UCAUGUUUAGAGGAUAUGAUUACUCUAGAGUGAUCAGAAGGCUAGACAUGAGGAUCACCCAUGUCAUAACAUGA [Exclusion 6 - B - 16:a] (puzzle: Exclusion 6) , if possible.
Reply text: 85.7

* * *

Recorded apparent KD of MS2 coat protein for the following sequences
tested on: MS2 coat protein; assay: apparent KD of MS2 coat protein; designed switch direction (-1 OFF switch, 1 ON switch): -1; higher = weaker reporter binding; conditions: Eterna round: R95; input ligand: microRNA oligo, concentration not stated
Response body: numeric value in nM, unit text excluded.

Use these answered entries as a reference point.
INSERT INTO measurements (primary_sequence, recorded_result) VALUES
  ('UUUUUCAGGCCAGAUCCUCACAUGAGGAUCACCCAUGUGCUCGUCUGUUUUCGCUCUGUCUUUUUUUUGGUGGUGCU [Level Boss var2-20] (puzzle: Sensor v3, turn-off variant 1)', 26.7),
  ('AAACGGCGGAUCGUGGCUUUUUGCUCGUCUUGUGCUUCGACAUGAGGAUCACCCAUGUGGUGGUGAUCCGUUGUAAA [Grok-var2-16 mod JAL] (puzzle: Sensor v3, turn-off variant 2)', 15.8),
  ('GCUAGAGCAGGAUAUUCAAAACCUCACAUGAGGAUCACCCAUGUGGCCGAAAGGCCGGGAGGAGAAGGGCUCUAGC [Mat - Exclusion 5 - Eli mod - D84] (puzzle: Exclusion 5)', 15.1),
  ('AAGGAUAGAGGAUAUACAUAGAUACAGAUUCGUGUAGUCCUACAUGAGGAUCACCCAUGUAGAAGGCUAUCCUA [Fiskers Ex 2 - 13] (puzzle: Exclusion 2)', 11.3);

Inquiry: Fill in: apparent KD of MS2 coat protein of ACAAGCUUUUUGCAACAAGCAUUAAACUCUCAGAUCGUAACAUGAGGAUCACCCAUGUAAGUUUUAUGACGUCUUAU [JR_SV3TOV2_Sub095] (puzzle: Sensor v3, turn-off variant 2) is ___
Reply text: 18.1

* * *

tested on: MS2 coat protein; test: apparent KD of MS2 coat protein; designed switch direction (-1 OFF switch, 1 ON switch): -1; higher = weaker reporter binding; details: input ligand: microRNA oligo, concentration not stated
Recorded apparent KD of MS2 coat protein values for a group of sequences are listed next.
Report the figure in nM without appending any unit label.

Worked examples follow.
INSERT INTO assay_data (primary_sequence, target_or_system, unit_text, recorded_result) VALUES
  ('GGUACUCAAAGAGUACCAAUACGAACAUGAGGAUCACCCAUGUAGGAUAUGCUACUCAAAGAGUAGCAGAAGGAUAUGAUCCAU [Far Half Aptamer v13] (Eterna round: R96, puzzle: Exclusion NG 3)', 'MS2 coat protein', 'nM', 60.5),
  ('ACGCAUUGCCUUUGGUAGUGCGUAACAUGAGGAUCACCCAUGUAGGAUAUGGUAGGCUUUGCUUACCAGAAGGACAUAAUAAUA [Mat - Exclusion NG 3 - Mod of JL - D1] (Eterna round: R96, puzzle: Exclusion NG 3)', 'MS2 coat protein', 'nM', 22.7);

Inquiry: State the recorded apparent KD of MS2 coat protein for this entry: AUGGGUCCUCACGGAGCUACAUGAGGAUCACCCAUGUGGAUUGAGGAUAUCGUAAGCCGACGGCACGAGAAGGCAGUUUACUGU [Ex NG3 #97] (Eterna round: R96, puzzle: Exclusion NG 3)
Reply text: 22.8

Inquiry: Same lookup for UGAUCUAGGCGAGGAUAUACAUGAGGAUCACCCAUGUAAGCGUGACAUGGAAACAUGUCACGUAUGUAGAAGGCGCCUAGAUCU [MOD ENG2 3.54 by JL] (Eterna round: R96, puzzle: Exclusion NG 2) , please.
Reply text: 8.6

Inquiry: Then UUAUUAUAUGUAGGAUAUGCAUAUUAUUAUUAUGCAGAAGGACAUGAGGAUCACCCAUGUAUAUUGUUAUUAUAUAUUAUAUAU [Title] (Eterna round: R96, puzzle: Exclusion NG 1) ?
Reply text: 21.7

Inquiry: Moving on to AGUAACUCAAGAGGAUAUCACAUGAGGAUCACCCAUGUAUAGCGCGCUGCGCUAGUCCUCGUAUUUGAGAAGGUUUGAUAAAUG [Riausve] (Eterna round: R96, puzzle: Exclusion NG 2)
Reply text: 10.8

Inquiry: Can you check GUUGGUAAGUCAGGAUAUCCCUGUAAUGGCAGCGGAGAAGGGACAUGAGGAUCACCCAUGUGAACCUCCGGCGGGUAAACCCGC [Issoange] (Eterna round: R96, puzzle: Exclusion NG 1) next?
Reply text: 20.5

Inquiry: Repeat with UAUAUAUAGUAAGGAUAUGUAAUCAUUUUAUAAACAGAAGGUACUGACAUGAGGAUCACCCAUGUUUUAGUGUGGGCAUGUAGA [JMF's solution 31] (Eterna round: R96, puzzle: Exclusion NG 1)
Reply text: 64.6

Inquiry: Let us now turn to ACAUGUAAUGUAGGAUAUUUUACACAUGAGGAUCACCCAUGUGACCAGAGGCUUUACUAUGAGUAAAAGAAGGGUAUGUACAUG [Ex NG2 #60] (Eterna round: R96, puzzle: Exclusion NG 2)
Reply text: 33.5

Source listed as the supplement of paper PMC9170038.
